Biological target: T1, human histidine-rich glycoprotein (HRG), purified from human plasma (human, UniProt P04196 19-525)
T1 construct: also called human purified HRG; human purified HRG protein
T1 sequence: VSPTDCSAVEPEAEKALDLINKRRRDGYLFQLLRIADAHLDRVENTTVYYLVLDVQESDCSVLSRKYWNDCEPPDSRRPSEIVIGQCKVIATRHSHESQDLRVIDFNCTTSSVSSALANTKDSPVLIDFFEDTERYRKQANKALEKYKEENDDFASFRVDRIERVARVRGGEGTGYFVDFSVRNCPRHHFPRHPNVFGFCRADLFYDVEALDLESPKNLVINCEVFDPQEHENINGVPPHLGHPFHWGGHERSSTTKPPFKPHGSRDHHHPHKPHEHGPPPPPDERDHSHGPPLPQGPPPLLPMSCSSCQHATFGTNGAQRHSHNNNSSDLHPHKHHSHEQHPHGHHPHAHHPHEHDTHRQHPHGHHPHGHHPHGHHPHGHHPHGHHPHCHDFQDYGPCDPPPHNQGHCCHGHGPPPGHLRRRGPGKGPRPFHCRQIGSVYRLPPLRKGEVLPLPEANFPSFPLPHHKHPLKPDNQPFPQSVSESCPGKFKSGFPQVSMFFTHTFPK
Assay: sandwich ELISA, HRG captured by solid phase 58-5C
endpoint label: absorbance at 450 nm (OD450)

binder	result
anti-HRG monoclonal antibody 6-12A-10B-9G (antibody, V domains shown, Mouse hybridoma monoclonal; biotin-labeled as detection antibody and for bead immobilisation) VH: EVQLQESGPGLVKPSQSLSLTCTVTGYSITSDYAWNWIRQFPGNKLEWMGYISYSGSTNYNPSLRSRISITRDTSKNQFFLQLISVTTEDTATYYCGSASYRYAWFAYWGQGTLVTVSA VL: DIQVTQTTSSLSASLGDRVTISCRASQDISNYLNWYQQKPDGTVKLLIYYTSRLHSGVPSRFSGSGSGTDYSLTISNLEQEDIATYFCQQGNTLPTFGGGTKLEIK	2 to 3 od
anti-HRG monoclonal antibody 69-1A (antibody, V domains shown, Mouse hybridoma monoclonal; also called clone No. 69-1A) VH: EVKLEESGGGLVQPGGSMKLSCAASGFTFSDAWMDWVRQSPEKGLEWVAEIRSKANNHGTYYAESVKGRFTISRDDSKSSVYLRMNSLSAEDTGIYYCTRPFAYWGQGTLVTVSA VL: DVVVTQTPLSLPVSLGDQASISCRSSQSLVHIDGNTYFHWYVQKPGQSPKLLIYKVSNRFSGVPDRFSGSGSGTDFTLKISRVEAEDLGVYFCSQSTHVPLTFGAGTKLELK	1 to 2 od
anti-HRG monoclonal antibody 67-8A-5F (antibody, V domains shown, Mouse hybridoma monoclonal) VH: EVQLQESGPGLVKPSQSLSLTCTVTGYSITSDYAWNWIRQFPGNKLEWMGYISYSGSTSYNPSLKSRISITRDTSKNQFFLQLNSVTTEDTATYYCASASYRYAWFAYWGQGTLVTVSA VL: DIQMTQTTSSLSASLGDRVTISCRASQDISNYLNWYQQKPDGTVKLLIYYTSRLLSGVPSRFSGSGSGTDYSLTISNLEQEDIATYFCQQGNTLPTFGGGTKLEIK	2 to 3 od
anti-HRG monoclonal antibody 50-6C-2A (antibody, V domains shown, Mouse hybridoma monoclonal) VH: EVQLQESGPGLVKPSQSLSLTCTVTGYSITSDYAWNWIRQFPGNKLEWMGYISYSGSTNYNPSLKSRISITRDTSKNQFFLQLNSVTTEDTATYYCASASYRYAWFAYWGQGTLVTVST VL: DIQMTQTTSSLSASLGDRVTISCRASQDISNYLNWYQQKPDGTVKLLIYYTSRLHSGVPSRFSGSGSGTDYSLTISNLEQEDIGTYFCQQGNTLPTFGGGTKLEIK	1 to 2 od
